The reported measurements were obtained from patent US20250361268A1.

# SUBJECT_OF_TEST: T1, FPR1 (UniProt P21462 1-350, limits assumed)
# T1 sequence (looked up): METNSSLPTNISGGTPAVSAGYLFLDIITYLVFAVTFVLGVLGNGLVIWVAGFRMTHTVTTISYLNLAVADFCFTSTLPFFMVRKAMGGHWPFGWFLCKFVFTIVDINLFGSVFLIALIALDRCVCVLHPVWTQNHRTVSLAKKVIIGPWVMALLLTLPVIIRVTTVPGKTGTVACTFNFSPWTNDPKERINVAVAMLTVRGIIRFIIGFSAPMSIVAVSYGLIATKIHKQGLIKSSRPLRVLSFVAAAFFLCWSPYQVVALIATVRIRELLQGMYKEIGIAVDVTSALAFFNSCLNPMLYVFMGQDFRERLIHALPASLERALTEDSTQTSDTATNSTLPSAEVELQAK
# ASSAY_TEXT: cell-based or functional assay
MEASURED_PROPERTY: EC50 for [Ca2+]

The following binders have reported results that may help.
BINDER | EC50 for [Ca2+]
RMRYYYM (HELM PEPTIDE1{[ac].R.M.R.Y.Y.Y.[dM].[am]}$$$$V2.0; SMILES CSCC[C@H](NC(=O)[C@H](CCCNC(=N)N)NC(C)=O)C(=O)N[C@@H](CCCNC(=N)N)C(=O)N[C@@H](Cc1ccc(O)cc1)C(=O)N[C@@H](Cc1ccc(O)cc1)C(=O)N[C@@H](Cc1ccc(O)cc1)C(=O)N[C@H](CCSC)C(N)=O) [peptide of SEQ ID NO 125] | > 10 µM
KWKYWYM (HELM PEPTIDE1{[ac].K.W.K.Y.W.Y.[dM].[am]}$$$$V2.0; SMILES CSCC[C@@H](NC(=O)[C@H](Cc1ccc(O)cc1)NC(=O)[C@H](Cc1c[nH]c2ccccc12)NC(=O)[C@H](Cc1ccc(O)cc1)NC(=O)[C@H](CCCCN)NC(=O)[C@H](Cc1c[nH]c2ccccc12)NC(=O)[C@H](CCCCN)NC(C)=O)C(N)=O) [peptide of SEQ ID NO 80] | > 10 µM

# evaluate next
Requested read-out: EC50 for [Ca2+]. Entry: RWRYKVM (HELM PEPTIDE1{R.W.R.Y.K.V.[dM].[am]}$$$$V2.0; N-terminus assumed; SMILES CSCC[C@@H](NC(=O)[C@@H](NC(=O)[C@H](CCCCN)NC(=O)[C@H](Cc1ccc(O)cc1)NC(=O)[C@H](CCCNC(=N)N)NC(=O)[C@H](Cc1c[nH]c2ccccc12)NC(=O)[C@@H](N)CCCNC(=N)N)C(C)C)C(N)=O) [peptide of SEQ ID NO 1]
> 10 µM
